- assay-method-text: Pseudomonas biofilm growth suppression – PAO1 strain, BacTiter-Glo luminescence, LB-PBS, primary screen (AID 1144)
- recorded-conditions: P. aeruginosa PAO1 biofilm, 12 h, higher = more signal
The source made the active and inactive calls. The rule behind the calls is not given here.
Examples of compounds with documented z-score follow.

compound: COc1ccc(CCNC(=O)[C@@]2(C)c3ccccc3C(=O)N(Cc3ccccc3)[C@H]2c2ccc(CO)cc2)cc1
z-score: -2.01 (inactive)

compound: Cn1c2c(c3ccccc31)C(=O)C1NC2C=CC1(C)C(=O)OCc1ccccc1 (configuration not stated)
z-score: 0.908 (inactive)

compound: O=C1C2C=CC(C(O)c3ccc(-c4ccccc4)s3)N(Nc3ccccc3F)C2C(=O)N1c1ccccc1 (configuration not stated)
z-score: -0.729 (inactive)

compound: Cc1ccc(S[C@]2(C(=O)NCCCN(C)C)CC(=O)N(Cc3ccccc3)[C@@H]2c2ccc(CO)cc2)cc1
z-score: 0.294 (inactive)

compound: C=C(COC)C(=O)CC[C@H](OC(=O)c1cccnc1)c1ccccc1OCCO
z-score: -0.201 (inactive)

compound: CN1C(=O)C2C(C1=O)C1C=C(c3ccc(CO)cc3)C2C(C2CC2)N1Cc1cc2c(cc1Br)OCO2 (configuration not stated)
z-score: -0.401 (inactive)

compound: Cc1ccc(S(=O)(=O)N2CC(C(=O)O)=CCC2c2ccccc2)cc1 (configuration not stated)
z-score: -0.153 (inactive)
